Cited source: PubChem BioAssay (NCI)

# System: CAKI-1 renal
# experimental.details: NCI tumour cell line growth inhibition, 48 h
measure: TGI

For this compound ( "NC(=O)NCc1c(C(N)=O)ncn1Cc1ccccc1" ), measured TGI is > 100 µM

The compound listed as C=CC[C@]12C=C(OC)[C@@H](O)[C@](OC)(C(c3cc(OC)c4c(c3)OCO4)[C@H]1C)[C@H]2OC(C)=O (stereo not given in full) has a reported TGI of > 100 µM

CSc1cnc2ccccc2c1SC1CN(Cc2ccccc2)c2ccccc2C1=O (stereo not given) has a reported TGI of > 100 µM

The compound listed as "O=c1oc2ccc([N+](=O)[O-])cc2c(Nc2ccc3c(c2)Oc2ccccc2O3)c1[N+](=O)[O-]" shows TGI equal to > 100 µM

For this compound ( "N#Cc1cccnc1Cl" ), measured TGI is > 100 µM
